Source: patent US20240182563A1

# TARGET OF ASSAY: T1, mouse CNTN4-10xHis (mouse, UniProt Q69Z26 19-1000)
# T1 sequence: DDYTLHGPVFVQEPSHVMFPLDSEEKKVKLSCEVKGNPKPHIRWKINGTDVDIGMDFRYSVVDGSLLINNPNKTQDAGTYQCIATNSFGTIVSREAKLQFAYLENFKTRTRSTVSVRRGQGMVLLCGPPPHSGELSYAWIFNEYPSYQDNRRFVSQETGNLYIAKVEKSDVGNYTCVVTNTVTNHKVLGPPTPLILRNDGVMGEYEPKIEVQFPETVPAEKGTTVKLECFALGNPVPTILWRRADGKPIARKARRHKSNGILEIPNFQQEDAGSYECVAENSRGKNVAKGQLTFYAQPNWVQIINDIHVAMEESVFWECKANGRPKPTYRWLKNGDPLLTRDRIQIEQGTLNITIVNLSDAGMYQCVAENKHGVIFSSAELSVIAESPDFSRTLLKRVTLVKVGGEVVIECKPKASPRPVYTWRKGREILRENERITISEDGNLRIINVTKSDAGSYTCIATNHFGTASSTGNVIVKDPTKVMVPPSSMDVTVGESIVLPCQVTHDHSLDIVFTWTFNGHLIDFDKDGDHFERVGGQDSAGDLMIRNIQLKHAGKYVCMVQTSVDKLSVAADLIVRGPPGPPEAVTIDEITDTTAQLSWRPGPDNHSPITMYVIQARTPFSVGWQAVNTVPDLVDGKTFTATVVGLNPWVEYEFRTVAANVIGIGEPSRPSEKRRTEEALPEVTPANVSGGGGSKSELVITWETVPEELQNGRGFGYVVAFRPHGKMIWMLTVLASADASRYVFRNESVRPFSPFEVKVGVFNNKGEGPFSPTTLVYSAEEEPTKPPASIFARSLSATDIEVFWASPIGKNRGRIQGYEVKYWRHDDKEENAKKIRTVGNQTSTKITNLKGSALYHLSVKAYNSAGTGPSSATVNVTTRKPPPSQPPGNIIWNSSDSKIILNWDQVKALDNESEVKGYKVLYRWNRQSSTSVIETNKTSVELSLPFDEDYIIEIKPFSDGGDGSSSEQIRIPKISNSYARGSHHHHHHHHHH
# ASSAY INFO: ELISA, plate coated with CNTN4-10xHis, anti-human Fc-HRP
READOUT KIND: EC50

{"BINDER": "anti-CNTN4 humanized antibody L2H2 (antibody, V domains shown, in the form of IgG4) VH: EVQLLESEGGLVQPGGSLRLSCAASGFTFSSFNMFWVRQAPGKGLEWVAEISGGGGSTWYAPAVKGRATISRDNSKNTVYLQMNSLRAEDTAVYYCAKSADTWSYGAATIDAWGQGTLVTVSS VL: ELTQDPAVSVALGQTVRITCSGSSGSYGWYQQKPGQAPVTLIYDNTNRPSGIPDRFSGSSSGSTGSLTITGAQAEDEADYYCGGYDGSTDVFGGGTKLTVL", "READOUT KIND": "EC50", "RESULT": "0.019 nM"}
{"BINDER": "anti-CNTN4 129 chimeric IgG4-S228P (antibody, V domains shown, chicken-human chimeric IgG4-S228P made from S129, kappa light chain constant region (Kappa select); also called A-01; LAHA) VH: AVTLDESEGGLQTPGGALSLVCKASGFTFSSFNMFWVRQAPGKGLEYVAEISGGGGSTWYAPAVKGRATISRDNGQSTVRLQLNNLRAEDTGTYYCAKSADTWSYGAATIDAWGHGTEVIVSS VL: ALTQPSSVSANLGETVKITCSGSSGSYGWYQQKSPGSAPVTLIYDNTNRPSDIPSRFSGSGSGSTGTLTITGVRAEDEAVYYCGGYDGSTDVFGAGTTLTVL", "READOUT KIND": "EC50", "RESULT": "0.011 nM"}
{"BINDER": "anti-CNTN4 humanized antibody L1H2 (antibody, V domains shown, in the form of IgG4) VH: EVQLLESEGGLVQPGGSLRLSCAASGFTFSSFNMFWVRQAPGKGLEWVAEISGGGGSTWYAPAVKGRATISRDNSKNTVYLQMNSLRAEDTAVYYCAKSADTWSYGAATIDAWGQGTLVTVSS VL: ELTQDPAVSVALGQTVRITCSGSSGSYGWYQQKPGQAPVLVIYDNTNRPSGIPDRFSGSSSGNTASLTITGAQAEDEADYYCGGYDGSTDVFGGGTKLTVL", "READOUT KIND": "EC50", "RESULT": "0.029 nM"}
{"BINDER": "anti-CNTN4 humanized antibody LAH2 (antibody, V domains shown, in the form of IgG4) VH: EVQLLESEGGLVQPGGSLRLSCAASGFTFSSFNMFWVRQAPGKGLEWVAEISGGGGSTWYAPAVKGRATISRDNSKNTVYLQMNSLRAEDTAVYYCAKSADTWSYGAATIDAWGQGTLVTVSS VL: ALTQPSSVSANLGETVKITCSGSSGSYGWYQQKSPGSAPVTLIYDNTNRPSDIPSRFSGSGSGSTGTLTITGVRAEDEAVYYCGGYDGSTDVFGAGTTLTVL", "READOUT KIND": "EC50", "RESULT": "0.017 nM"}
